Readings of Anti-bacterial activity (MIC), strain EFA 15-4 for the listed compounds
system: Enterococcus faecalis (EFA); test: MIC, two-fold agar dilution (CLSI), clinical isolates; assay type: cell-based; conditions: clinical isolate EFA 15-4
quantity kind: Anti-bacterial activity (MIC), strain EFA 15-4 (µg/mL)

{"columns": ["compound", "comparator", "measured"],
 "data": [
  ["O=CN(O)C[C@@H](CC1CCCC1)C(=O)N1CC2(CC2)C[C@H]1C(=O)Nc1nccs1 (stereo in doubt) [Example 40]", "=", 4],
  ["CCCC[C@H](CC(=O)NO)C(=O)N1CC2(CC2)C[C@H]1c1nc2ccccc2n1CCN(C)C [Example 60]", ">", 32],
  ["CCCC[C@H](CC(=O)NO)C(=O)N1CC2(CC2)C[C@H]1C(=O)Nc1cnccn1 [Example 44]", ">", 32],
  ["Cc1cnc(NC(=O)[C@@H]2CC3(CC3)CN2C(=O)[C@@H](CC(=O)NO)CC2CCCC2)s1 [Example 65]", "=", 32],
  ["O=C(C[C@@H](CC1CCCC1)C(=O)N1CC2(CC2)C[C@H]1C(=O)Nc1ccc(F)cn1)NO [Example 64]", "=", 32],
  ["CCCC[C@H](CC(=O)NO)C(=O)N1CC2(CC2)C[C@H]1C(=O)Nc1nc(C(F)(F)F)cs1 [Example 57]", "=", 8]
]}
